Experimental system: T1, hCD112R mFC recombinant protein (human; murine, UniProt Q6DKI7 41-160)
T1 construct: range 41-160; expressed in 293E cells; also called hCD112R ECD mFC; hCD112R-ECD-mFC; not shown: murine IgG2a Fc domain (MX2-mFc vector)
T1 sequence (looked up): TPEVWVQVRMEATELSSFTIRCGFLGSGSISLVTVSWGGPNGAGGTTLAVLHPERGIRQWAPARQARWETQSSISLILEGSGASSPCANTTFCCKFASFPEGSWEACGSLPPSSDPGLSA
Assay explanation: FACS competition, hCD112R mFc on CHO CD112 cells
Answer each item with its documented IC50.
Answer in µg/mL, number only, no unit symbol.

IC50 for Hu33 (antibody, IgG4, V domains shown, humanized IgG4) VH: EVQLVESGGGLVQPGGSLRLSCAASGFTFSSYHMSWVRQAPGKGLELVAAISRDGDSTYYPDTVKGRFTISRDDAENSLYLQMNSLRAEDTAVYYCSRHEDYFGFAMDSWGQGTLVTVSS VL: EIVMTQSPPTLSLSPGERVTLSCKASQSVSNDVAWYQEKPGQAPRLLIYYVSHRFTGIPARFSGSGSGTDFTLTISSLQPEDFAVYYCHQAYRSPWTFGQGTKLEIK is 2.48

IC50 for Hu50 (antibody, IgG4, V domains shown, humanized IgG4) VH: EVQLVESGGGLVKPGGSLRLSCAASGFTFSSYHMSWVRQAPGKGLELVSAINSNGINTYYLDTVKGRFTISRDNAKNSLYLQMNSLRAEDTAVYYCARHEDYYGFAMDYWGQGTLVTVSS VL: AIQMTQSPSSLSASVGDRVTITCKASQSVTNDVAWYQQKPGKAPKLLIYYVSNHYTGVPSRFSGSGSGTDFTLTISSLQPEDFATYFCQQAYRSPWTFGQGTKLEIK is 2.67

IC50 for Hu36 (antibody, IgG4, V domains shown, humanized IgG4) VH: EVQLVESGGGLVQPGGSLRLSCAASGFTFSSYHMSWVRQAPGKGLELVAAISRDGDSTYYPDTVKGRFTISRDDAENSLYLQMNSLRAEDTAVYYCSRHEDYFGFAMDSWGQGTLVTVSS VL: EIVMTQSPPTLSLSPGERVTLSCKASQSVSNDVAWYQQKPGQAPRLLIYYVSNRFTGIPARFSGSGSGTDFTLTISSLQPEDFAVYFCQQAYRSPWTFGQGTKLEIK is 2.44

IC50 for Hu30 (antibody, IgG4, V domains shown, humanized IgG4) VH: EVQLVESGGGLVQPGGSLRLSCAASGFTFSSYHMSWVRQAPGKGLELVAAISRDGDSTYYPDTVKGRFTISRDNAKNSLYLQMNSLRAEDTAVYYCSRHEDYFGFAMDSWGQGTLVTVSS VL: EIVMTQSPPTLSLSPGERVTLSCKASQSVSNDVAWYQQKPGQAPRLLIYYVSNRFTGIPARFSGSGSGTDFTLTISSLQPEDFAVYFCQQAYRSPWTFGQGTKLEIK is 2.37

IC50 for Hu27 (antibody, IgG4, V domains shown, humanized IgG4) VH: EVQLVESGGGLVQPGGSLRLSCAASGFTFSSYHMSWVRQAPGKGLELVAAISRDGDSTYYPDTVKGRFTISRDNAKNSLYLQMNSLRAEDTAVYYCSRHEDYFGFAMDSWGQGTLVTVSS VL: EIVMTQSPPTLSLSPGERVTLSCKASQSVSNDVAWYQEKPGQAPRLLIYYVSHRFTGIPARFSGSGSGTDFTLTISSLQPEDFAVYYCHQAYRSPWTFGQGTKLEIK is 2.31

IC50 for Hu19 (antibody, IgG4, V domains shown, humanized IgG4) VH: EVQLVESGGGLVKPGGSLRLSCAASGFTFSSYHMSWVRQAPGKGLELVSAISRDGDSTYYPDTVKGRFTISRDDAENSLYLQMNSLRAEDTAVYYCSRHEDYFGFAMDSWGQGTLVTVSS VL: DIVMTQSPDSLAVSLGERATINCKASQSVTNDVAWYQQKPGQPPKLLIYYVSNHYTGVPDRFSGSGSGTDFTLTISSLQAEDVAVYFCQQAYRSPWTFGQGTKLEIK is 2.48

IC50 for Hu5 (antibody, IgG4, V domains shown, humanized IgG4; also called Hu-05) VH: EVQLVESGGGLVQPGGSLRLSCAASGFTFSSYHMSWVRQAPGKGLELVAAINSNDINTYYLDTVKGRFTISRDIAKNSLYLQMNSLRAEDTAVYYCARHEDYYGFAMDYWGQGTLVTVSS VL: DIQMTQSPSSLSASVGDRVTITCKASQSVSNDVAWYQQKPGKAPKLLIYYVSNRFTGVPSRFSGSGSGTDFTLTISSLQPEDFATYFCQQAYRSPWTFGQGTKLEIK is 4.41

IC50 for Hu51 (antibody, IgG4, V domains shown, humanized IgG4) VH: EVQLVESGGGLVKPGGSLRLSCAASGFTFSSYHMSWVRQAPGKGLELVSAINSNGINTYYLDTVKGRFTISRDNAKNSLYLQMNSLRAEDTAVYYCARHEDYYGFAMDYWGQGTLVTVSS VL: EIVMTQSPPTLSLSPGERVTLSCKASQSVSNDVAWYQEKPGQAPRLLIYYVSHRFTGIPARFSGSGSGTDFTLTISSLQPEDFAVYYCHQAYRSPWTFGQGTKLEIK is 3.48

IC50 for Hu24 (antibody, IgG4, V domains shown, humanized IgG4) VH: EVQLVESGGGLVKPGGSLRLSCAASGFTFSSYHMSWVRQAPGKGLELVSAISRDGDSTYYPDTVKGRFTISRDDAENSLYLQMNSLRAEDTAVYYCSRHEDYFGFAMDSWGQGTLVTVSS VL: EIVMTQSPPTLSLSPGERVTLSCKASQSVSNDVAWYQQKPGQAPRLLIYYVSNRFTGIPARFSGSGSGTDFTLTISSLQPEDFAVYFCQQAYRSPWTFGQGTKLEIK is 2.89

IC50 for Hu26 (antibody, IgG4, V domains shown, humanized IgG4) VH: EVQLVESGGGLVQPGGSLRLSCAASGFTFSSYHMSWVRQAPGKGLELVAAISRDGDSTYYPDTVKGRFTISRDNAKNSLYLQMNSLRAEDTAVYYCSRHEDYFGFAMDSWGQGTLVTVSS VL: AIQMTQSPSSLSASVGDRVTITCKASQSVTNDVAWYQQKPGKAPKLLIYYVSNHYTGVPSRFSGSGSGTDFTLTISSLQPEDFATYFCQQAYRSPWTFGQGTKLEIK is 2.47
